Data origin, for the record: the RNAGym collection of RNA variant scans (doi:10.1101/gr.219683.116)

B1: mRNA-splicing (parent)
chain: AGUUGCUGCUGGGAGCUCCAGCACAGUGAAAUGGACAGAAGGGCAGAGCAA

# Variants of: B1
# Experiment description: exon inclusion enrichment index; higher = more inclusion; WT1 exon 5 minigene, HEK293
Measured quantity: exon inclusion enrichment index

[[record]]
variant_description = "G5U C6G U7G C9A"
experimental_result = 0.0617

[[record]]
variant_description = "C18A C19A"
experimental_result = 0.547

[[record]]
variant_description = "C6A U7C C9A U10C G11C G12U"
experimental_result = 2.2

[[record]]
variant_description = "G5C C6A U7C G8A U10A A45C"
experimental_result = 0.18

[[record]]
variant_description = "G5A U7C G8A U10C G12U"
experimental_result = 1.13

[[record]]
variant_description = "G28U A29C"
experimental_result = 0.0665

[[record]]
variant_description = "G2U U3C G5C C6G U7C U10C"
experimental_result = 5.85

[[record]]
variant_description = "G5C C6U G8C U10C"
experimental_result = 2.2

[[record]]
variant_description = "G5C C6G U7C U10C G43A C44U"
experimental_result = 3.64

[[record]]
variant_description = "G5C C6G U7C U10C A35G C36G"
experimental_result = 0.751

[[record]]
variant_description = "C6A U7A C9A U10A C44U A45U"
experimental_result = 0.433

[[record]]
variant_description = "G5C C6U G8C C9U U10C G21U"
experimental_result = 1.22

[[record]]
variant_description = "C6A U7C C9A U10C G42U G43A"
experimental_result = 3.84

